molecular target: 5-HT1A receptor (Sus scrofa, UniProt A0A4X1UTF5); construct: Swine hippocampus was homogenized in a 50 mM Tris-Hcl buffer; from tissue; host or cells: swine hippocampus, membrane fraction; test: Affinity for serotonin 1A receptor: inhibition of [3H]MPPF binding in swine hippocampal membrane fraction; settings: [3H]MPPF 0.5 nM, swine hippocampal membrane, receptor in high affinity (G-protein binding, MgCl2 10 mM) state, 37°C 30 min; read-out: High affinity IC50
Sequence (A0A4X1UTF5 1-422): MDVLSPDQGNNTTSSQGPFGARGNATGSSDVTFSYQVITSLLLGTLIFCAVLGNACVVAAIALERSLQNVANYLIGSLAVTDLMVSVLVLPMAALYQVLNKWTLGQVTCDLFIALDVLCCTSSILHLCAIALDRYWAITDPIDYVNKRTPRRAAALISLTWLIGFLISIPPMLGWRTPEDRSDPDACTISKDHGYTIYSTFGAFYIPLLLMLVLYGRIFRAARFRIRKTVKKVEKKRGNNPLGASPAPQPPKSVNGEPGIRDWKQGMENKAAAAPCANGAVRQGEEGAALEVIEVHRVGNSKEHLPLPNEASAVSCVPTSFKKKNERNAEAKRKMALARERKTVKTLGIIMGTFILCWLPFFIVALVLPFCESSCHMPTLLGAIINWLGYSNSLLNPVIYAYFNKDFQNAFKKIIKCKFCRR
Outcome measure: IC50 (nM)

Solved entries (count: 3):
# Molecule, Measurement target, IC50 (nM)
rows = [
    ("COc1ccc2c(c1CCN1CCC(n3ccc4ccc(C(N)=O)cc43)CC1)OC(C)(C)CC2=O", "5-HT1A receptor (Sus scrofa, UniProt A0A4X1UTF5)", 0.13),
    ("COc1ccc2sc(C)nc2c1CCN1CCC(n2ccc3ccc(C(N)=O)cc32)CC1", "5-HT1A receptor (Sus scrofa, UniProt A0A4X1UTF5)", 0.23),
    ("COc1ccc2ccccc2c1CCN1CCC(n2ccc3ccc(C(N)=O)cc32)CC1", "5-HT1A receptor (Sus scrofa, UniProt A0A4X1UTF5)", 0.4),
]

a. COc1ccc2cccnc2c1CCN1CCC(n2ccc3ccc(C(N)=O)cc32)CC1
b. CON=C1CCc2c(CCN3CCC(n4ccc5ccc(C(N)=O)cc54)CC3)c(OC)cc(OC)c21
Of a versus b , which is the one with smaller reported IC50? Answer with the label corresponding to your selection.
b
(b: 0.22 nM, a: 0.34 nM)

A. CON=C1CCCOc2cc(OC)c(CCN3CCC(n4ccc5ccc(C(N)=O)cc54)CC3)cc21
B. COc1cc2c(cc1CCN1CCC(n3ccc4ccc(C(N)=O)cc43)CC1)OCCO2
// pick larger IC50 from pair: A vs B Answer with the label corresponding to your selection.
A
(A: 0.32 nM, B: 0.16 nM)
